Data credit: patent US11814435B2

Target: hCD3 (human CD3) (Homo sapiens, UniProt P07766)
Sequence (P07766 23-126 limits assumed): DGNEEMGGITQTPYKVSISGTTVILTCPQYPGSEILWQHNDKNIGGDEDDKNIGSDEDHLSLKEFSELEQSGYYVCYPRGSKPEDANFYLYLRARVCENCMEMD
Sequence (P04234 22-105 partner limits assumed): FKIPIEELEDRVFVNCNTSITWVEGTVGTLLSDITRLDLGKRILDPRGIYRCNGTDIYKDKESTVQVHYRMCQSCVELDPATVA
Test: Kinetics and affinity of hCD3/human IgG interactions by SPR (Bio-Rad Proteon XPR36)
Format: binding
Details: 37° C.

# molecule, ka huCD3ed @37° C.
records = [
    ("h2B4-VH-hnps VL_TK: anti-CD3 antibody (antibody, V domains shown) VH: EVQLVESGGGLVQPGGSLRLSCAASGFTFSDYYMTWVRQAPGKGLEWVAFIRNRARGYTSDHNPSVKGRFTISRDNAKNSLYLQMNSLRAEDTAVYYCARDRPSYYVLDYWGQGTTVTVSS VL: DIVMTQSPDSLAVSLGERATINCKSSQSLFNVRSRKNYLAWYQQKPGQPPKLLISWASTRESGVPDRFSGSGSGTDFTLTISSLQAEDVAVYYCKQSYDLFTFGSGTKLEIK", "390000 M⁻¹ s⁻¹"),
]
